assay: in vitro; assay type: cell-based, human; settings: human, Cell viability(%), individual samples
property: viability at 10 µM (%)
One number for each entry, in %.

Q) Please look up its viability at 10 µM: Cc1cc(C2CCCCC2)n(O)c(=O)c1 [Ciclopirox]
A) 93.5

* * *

assay: in vitro; conditions: human, Cell viability(%), individual samples
property: viability at 0.2 µM
Quote the value and follow it with the unit of measurement.

Q) Please look up its viability at 0.2 µM: `Cc1cc(C2CCCCC2)n(O)c(=O)c1`
A) 102%

* * *

assay: in vitro; format: cell-based, human; settings: human, Cell viability(%), individual samples
property: viability at 0.1 µM
Quote the value and follow it with the unit of measurement.

Q) Please look up its viability at 0.1 µM: `Cc1cc(C2CCCCC2)n(O)c(=O)c1`
A) 98.5%
